test system: anesthetized rat; assay: Blood pressure-lowering effect in anesthetized rat; type: in vivo; details: duodenal administration; half duration at ED30 (recovery to 50% of the maximum decrease in blood pressure)
Listed molecules paired with reported Blood pressure-lowering effect Half duration
Quantity: Blood pressure-lowering effect Half duration (min)

Molecule	Tgt	Reported
CC(=O)N[C@@H](CSC(C)=O)C(=O)[N-]c1c[n+](N2CCN(C)CC2)no1	anesthetized rat	60
Cl.N=c1c[n+](N2CCOCC2)[n-]o1 [SIN-1, 3-morpholinosydnonimine hydrochloride, reference compound]	anesthetized rat	75
CC(C)N1CCN([n+]2cc([N-]C(=O)CCSC(=O)c3ccccc3)on2)CC1	anesthetized rat	42
CC(=O)N[C@@H](CSC(=O)c1ccc(F)cc1)C(=O)[N-]c1c[n+](N2CCN(C)CC2)no1	anesthetized rat	53
Cc1cccc(C)c1C(=O)SCCC(=O)[N-]c1c[n+](N2CCN(C)CC2)no1	anesthetized rat	48
CN1CCN([n+]2cc([N-]C(=O)CCSC(=O)Nc3ccccc3)on2)CC1	anesthetized rat	45
CC(=O)N[C@@H](CSC(C)=O)C(=O)[N-]c1c[n+](N2CCN(C(C)C)CC2)no1	anesthetized rat	47
CCN1CCN([n+]2cc([N-]C(=O)CCSC(=O)c3c(F)cccc3F)on2)CC1	anesthetized rat	45
Cc1c(C)c2c(c(C)c1O)CCC(C)(C(=O)SCC(=O)[N-]c1c[n+](N3CCN(C)CC3)no1)O2 (stereo not drawn)	anesthetized rat	58
